These data points were gathered from ChEMBL document CHEMBL1146028.

Target Of Assay: Histamine H3 receptor (Homo sapiens, UniProt Q9Y5N1)
Sequence (Q9Y5N1 whole entry): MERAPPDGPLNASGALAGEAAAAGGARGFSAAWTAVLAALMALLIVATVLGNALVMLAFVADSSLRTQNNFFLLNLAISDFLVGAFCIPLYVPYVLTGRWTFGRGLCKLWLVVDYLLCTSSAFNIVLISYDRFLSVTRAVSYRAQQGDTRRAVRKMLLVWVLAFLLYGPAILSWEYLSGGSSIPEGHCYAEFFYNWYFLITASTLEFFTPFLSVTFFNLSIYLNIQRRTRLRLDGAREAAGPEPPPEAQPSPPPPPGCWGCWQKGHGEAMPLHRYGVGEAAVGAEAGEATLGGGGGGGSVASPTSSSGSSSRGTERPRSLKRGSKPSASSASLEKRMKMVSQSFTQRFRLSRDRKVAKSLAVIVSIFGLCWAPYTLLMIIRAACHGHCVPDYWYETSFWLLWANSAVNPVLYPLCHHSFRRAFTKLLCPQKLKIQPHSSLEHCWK
Experimental Details: Displacement of [3H]RAMHA from human histamine H3 receptor transfected in SK-N-MC cells
pKi: −log10 of the molar value.
Assign 1.0 whenever pKi does not fall below 8; assign 0.0 whenever it does.

{"columns": ["Mol Smiles", "Group"],
 "data": [
  ["CN(C)Cc1ccc(-c2ccc(CN(C)C)cc2)cc1", 1.0],
  ["c1cc(-c2ccc(CN3CCCCC3)cc2)ccc1CNC1CCCCC1", 1.0],
  ["c1cc(-c2ccc(CN3CCCCC3)cc2)ccc1CN1CCCCC1", 1.0],
  ["c1cc(CN2CCCCC2)ccc1CN1CCCCC1", 0.0],
  ["O=C1CCCCN1Cc1ccc(-c2ccc(CN3CCCCC3)cc2)cc1", 0.0],
  ["c1cc(-c2ccc(CNC3CCCCC3)cc2)ccc1CNC1CCCCC1", 0.0],
  ["CN(Cc1ccc(-c2ccc(CN(C)C3CCCCC3)cc2)cc1)C1CCCCC1", 0.0]
]}
